Attribution: patent US20240010750A1

IC50 [M], inhibition of plasmin proteolytic activity for assorted binders
Target: human Plasmin (human, UniProt P00747 97-580; P00747 581-810, limits assumed)
Sequence (P00747 97-580 limits assumed, chain 1 of 2): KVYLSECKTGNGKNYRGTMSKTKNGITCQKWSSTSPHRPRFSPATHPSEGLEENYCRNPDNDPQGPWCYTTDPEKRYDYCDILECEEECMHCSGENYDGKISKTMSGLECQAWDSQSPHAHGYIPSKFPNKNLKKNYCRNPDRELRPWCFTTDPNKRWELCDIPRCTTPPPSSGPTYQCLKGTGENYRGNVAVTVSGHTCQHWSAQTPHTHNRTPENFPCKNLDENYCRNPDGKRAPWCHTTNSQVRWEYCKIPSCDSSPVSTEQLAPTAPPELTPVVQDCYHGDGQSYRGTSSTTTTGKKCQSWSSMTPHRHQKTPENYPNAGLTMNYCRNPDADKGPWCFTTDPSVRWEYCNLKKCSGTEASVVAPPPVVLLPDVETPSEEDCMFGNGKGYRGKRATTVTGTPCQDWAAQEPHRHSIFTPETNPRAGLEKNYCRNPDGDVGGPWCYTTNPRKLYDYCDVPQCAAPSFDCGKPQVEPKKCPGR
Sequence (P00747 581-810 limits assumed, chain 2 of 2): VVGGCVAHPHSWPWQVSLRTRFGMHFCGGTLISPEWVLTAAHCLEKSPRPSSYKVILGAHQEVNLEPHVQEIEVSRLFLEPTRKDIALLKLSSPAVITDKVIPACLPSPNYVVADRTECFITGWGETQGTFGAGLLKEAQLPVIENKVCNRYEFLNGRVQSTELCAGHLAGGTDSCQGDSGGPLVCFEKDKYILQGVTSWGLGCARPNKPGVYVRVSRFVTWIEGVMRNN
Test: cell-based or functional assay
Measured Endpoint: IC50 [M], inhibition of plasmin proteolytic activity

>  <Binder>
TPP-14303 hIgG1 (antibody, V domains shown) VH: EVQLLESGGGLVQPGGSLRLSCAASGFTFDDYAMSWVRQAPGKGLEWVSAIGTGGGTYYADSVKGRFTISRDNSKNTLYLQMNSLRAEDTAVYYCAREDYDSSGYYHLDYWGQGTLVTVSS VL: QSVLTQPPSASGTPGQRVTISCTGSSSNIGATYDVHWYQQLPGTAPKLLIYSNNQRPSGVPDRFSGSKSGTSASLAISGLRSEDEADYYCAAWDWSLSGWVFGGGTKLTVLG

>  <Val>
> 1e-05 M

$$$$
>  <Binder>
TPP-14323 hIgG1 (antibody, V domains shown) VH: EVQLLESGGGLVQPGGSLRLSCAASGFTFDDYAMSWVRQAPGKGLEWVSAIGTGGGTYYADSVKGRFTISRDNSKNTLYLQMNSLRAEDTAVYYCAREYYDSSGYYHLTYWGQGTLVTVSS VL: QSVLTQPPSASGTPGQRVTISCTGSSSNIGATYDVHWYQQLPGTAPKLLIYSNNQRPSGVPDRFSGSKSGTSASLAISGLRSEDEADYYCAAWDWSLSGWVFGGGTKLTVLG

>  <Val>
> 1e-05 M

$$$$
>  <Binder>
TPP-14308 hIgG1 (antibody, V domains shown, starting point of the germlining) VH: EVQLLESGGGLVQPGGSLRLSCAASGFTFDDYAMSWVRQAPGKGLEWVSAIGTGGGTYYADSVKGRFTISRDNSKNTLYLQMNSLRAEDTAVYYCAREGYDSSGYYHLDYWGQGTLVTVSS VL: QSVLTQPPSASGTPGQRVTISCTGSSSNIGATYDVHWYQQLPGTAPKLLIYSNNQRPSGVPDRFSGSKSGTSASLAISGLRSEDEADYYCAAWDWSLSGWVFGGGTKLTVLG

>  <Val>
> 5e-06 M

$$$$
>  <Binder>
TPP-17051 hIgG1 (antibody, V domains shown, Germline variant of TPP-14308) VH: EVQLLESGGGLVQPGGSLRLSCAASGFTFDSYAMSWVRQAPGKGLEWVSAIGTGGSTYYADSVKGRFTISRDNSKNTLYLQMNSLRAEDTAVYYCAREGYDSSGYYHLDYWGQGTLVTVSS VL: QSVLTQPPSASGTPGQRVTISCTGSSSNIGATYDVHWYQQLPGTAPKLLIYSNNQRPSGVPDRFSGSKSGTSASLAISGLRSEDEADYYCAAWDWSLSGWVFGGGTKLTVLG

>  <Val>
> 1e-05 M

$$$$
>  <Binder>
TPP-17041 hIgG1 (antibody, V domains shown, Germline variant of TPP-14308) VH: EVQLLESGGGLVQPGGSLRLSCAASGFTFSDYAMSWVRQAPGKGLEWVSAIGTGGGTYYADSVKGRFTISRDNSKNTLYLQMNSLRAEDTAVYYCAREGYDSSGYYHLDYWGQGTLVTVSS VL: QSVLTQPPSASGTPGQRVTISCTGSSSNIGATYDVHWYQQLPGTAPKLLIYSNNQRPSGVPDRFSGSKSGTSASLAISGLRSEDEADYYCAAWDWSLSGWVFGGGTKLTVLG

>  <Val>
> 1e-05 M

$$$$
>  <Binder>
TPP-14314 hIgG1 (antibody, V domains shown, Human IgG1 lambda) VH: EVQLLESGGGLVQPGGSLRLSCAASGFTFDDYAMSWVRQAPGKGLEWVSAIGTGGGTYYADSVKGRFTISRDNSKNTLYLQMNSLRAEDTAVYYCAREYYDSSGYYHLVYWGQGTLVTVSS VL: QSVLTQPPSASGTPGQRVTISCTGSSSNIGATYDVHWYQQLPGTAPKLLIYSNNQRPSGVPDRFSGSKSGTSASLAISGLRSEDEADYYCAAWDVSLSGWVFGGGTKLTVL

>  <Val>
> 2e-06 M

$$$$
>  <Binder>
TPP-17045 hIgG1 (antibody, V domains shown, Germline variant of TPP-14308) VH: EVQLLESGGGLVQPGGSLRLSCAASGFTFDDYAMSWVRQAPGKGLEWVSAIGTGGGTYYADSVKGRFTISRDNSKNTLYLQMNSLRAEDTAVYYCAKEGYDSSGYYHLDYWGQGTLVTVSS VL: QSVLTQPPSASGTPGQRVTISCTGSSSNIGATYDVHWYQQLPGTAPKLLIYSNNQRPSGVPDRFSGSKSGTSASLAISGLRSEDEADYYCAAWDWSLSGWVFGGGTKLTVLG

>  <Val>
> 1e-05 M

$$$$
>  <Binder>
TPP-14313 hIgG1 (antibody, V domains shown, Human IgG1 lambda) VH: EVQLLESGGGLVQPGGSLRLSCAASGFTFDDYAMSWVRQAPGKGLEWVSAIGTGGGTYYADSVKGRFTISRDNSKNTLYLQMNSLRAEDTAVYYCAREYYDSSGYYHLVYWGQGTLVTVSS VL: QSVLTQPPSASGTPGQRVTISCTGSSSNIGATYDVHWYQQLPGTAPKLLIYSNNQRPSGVPDRFSGSKSGTSASLAISGLRSEDEADYYCAAWDWSLSGWVFGGGTKLTVL

>  <Val>
> 5e-06 M

$$$$
>  <Binder>
TPP-17053 hIgG1 (antibody, V domains shown, Germline variant of TPP-14308) VH: EVQLLESGGGLVQPGGSLRLSCAASGFTFDDYAMSWVRQAPGKGLEWVSAIGSGGSTYYADSVKGRFTISRDNSKNTLYLQMNSLRAEDTAVYYCAREGYDSSGYYHLDYWGQGTLVTVSS VL: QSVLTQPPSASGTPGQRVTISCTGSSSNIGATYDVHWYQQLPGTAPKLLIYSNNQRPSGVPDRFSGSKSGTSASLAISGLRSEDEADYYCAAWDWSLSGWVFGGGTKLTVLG

>  <Val>
> 1e-05 M

$$$$
>  <Binder>
TPP-17048 hIgG1 (antibody, V domains shown, Germline variant of TPP-14308) VH: EVQLLESGGGLVQPGGSLRLSCAASGFTFSDYAMSWVRQAPGKGLEWVSAIGTGGSTYYADSVKGRFTISRDNSKNTLYLQMNSLRAEDTAVYYCAREGYDSSGYYHLDYWGQGTLVTVSS VL: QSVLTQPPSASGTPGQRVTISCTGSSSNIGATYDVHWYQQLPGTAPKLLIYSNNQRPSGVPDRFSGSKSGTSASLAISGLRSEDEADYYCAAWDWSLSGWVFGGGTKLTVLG

>  <Val>
> 1e-05 M

$$$$
